target: HLA-B*5701 (Homo sapiens, UniProt P01889, D201E/D98Y/E176V/E187L/E204Q/E69M/E70A/G107R/I90N/K202T/L105A/L119I/N104I/N87E/Q89R/Q94S/R106L/R155S/R180L/R86G/S101N/S121V/S35A/S48A/T118I/V36M/Y140S/Y91M); test: Cell-based HLA class I-peptide concentration-based stability assay (TAP-deficient mono-allelic 721.221 cells); details: section B*57; peptide 100 uM; TAP-deficient mono-allelic 721.221 cells; relative anti-HLA MFI
Task for the reader: assign each of the following sequences its reported Relative HLA MFI (100 uM).
Give bare numbers.

Examples with their reported Relative HLA MFI (100 uM) follow.
IVLPEKDSW [IW9 (RT)] | 0.7481
KAIGTVLV [KV8] | 0
AVRHFPRIW [AW9] | 0.7818
HTQGYFPDW [HW9] | 0.6623
KAFSPEVI [KI8] | 0.2215

Hello, I would appreciate it if you could give Relative HLA MFI (100 uM) for each entry below.
1. KAFSPEVIPMF [KF11]
2. QAVRIIKILY [QY10]
3. YTPGPGIRY [YY9]

1: 0.5689; 2: 0; 3: 0

Hello, I would appreciate it if you could give Relative HLA MFI (100 uM) for each entry below.
1. ISKKAKGWF [IF9]
2. HTQGYFPDWQ [HQ10]
3. LGHGVSIEW [LW9]
4. IATESIVIW [IAW9]
5. LTFGWCFKL [LL9]
6. AIIRILQQL [AL9]
7. STTVKAACWW [SW10]

1: 0.557; 2: 0.01629; 3: 0.005429; 4: 1; 5: 0; 6: 0.004343; 7: 0.4995

Quick one: Relative HLA MFI (100 uM) for FSPEVIPMF [FF9] ?
0.02714

###

tested on: HLA class-I alleles A*0101, A*0201, A*0301, A*2402, B*0702, B*0801, B*1402, B*1501, B*2705, B*3501, B*3901, B*4001, B*4402, B*5201, B*5701, B*5801, B*8101 …; type: cell-based, human; conditions: HLA B*40 mono-allelic TAP-deficient 721.221 cells; peptide 100 uM; relative anti-HLA MFI
Decision: Relative HLA MFI (100 uM) beneath 0.6 gives TRUE; Relative HLA MFI (100 uM) meeting or exceeding 0.6 gives FALSE.

A selection of reference data follows.
QELKNSAVSL [QL10] | FALSE
GELDRWEKI [GI9] | TRUE
GERIVDII [GI8] | FALSE
IRYQYNVL [IL8] | FALSE
TERQANFL [TL8] | TRUE

Just wondering, is Relative HLA MFI (100 uM) of LEKHGAITS [LS9] below 0.6?
TRUE

Just wondering, is Relative HLA MFI (100 uM) of AEWDRVHPV [AV9] below 0.6?
FALSE

###

Task for the reader: assign each of the following sequences its reported Relative HLA MFI (100 uM).
system: HLA class-I alleles A*0101, A*0201, A*0301, A*2402, B*0702, B*0801, B*1402, B*1501, B*2705, B*3501, B*3901, B*4001, B*4402, B*5201, B*5701, B*5801, B*8101 …; type: cell-based, human; details: HLA B*44 mono-allelic TAP-deficient 721.221 cells; peptide 100 uM; relative anti-HLA MFI
One number for each entry.

AEQASQDVKNW [AW11] | 0.4825
AENLWVTVY [AY9] | 0.08113
AENLWVTVYY [AY10] | 0

Next sequence, please.
Quick one: Relative HLA MFI (100 uM) for LYNTVATLY [LY9] ?
0.1768
